- Tested on: Benjaminiella poitrasii
- experimentDescription: Inhibition of yeast hypha transition at 20 ug/mL after 4 hrs
Consider the following compounds and their measured inhibition at 20 µg/mL readings.
Field: numeric (%). Do not append units.

Solved entries:
molSmiles | inhibition at 20 µg/mL, %
N#Cc1c(N)nc2c(c1-c1ccccc1Cl)C(=O)CCC2 | 95
COc1ccc(NC(=O)Nc2cccc(-c3c(C#N)c(N)nc4c3C(=O)CCC4)c2)cc1 | 95
Cc1ccc(-c2c(C#N)c(N)nc3c2C(=O)CCC3)cc1 | 90

Ask: Which inhibition at 20 µg/mL is reported for this compound? CC(=O)Nc1nc2c(c(-c3ccc(C)cc3)c1C#N)C(=O)CCC2
Reply: 90

Ask: Entry N#Cc1c(N)nc2c(c1-c1ccccc1)C(=O)CCC2 please
Reply: 90

Ask: Entry N#Cc1c(N)nc2c(c1-c1cccc([N+](=O)[O-])c1)C(=O)CCC2 please
Reply: 85

Ask: How about Cc1ccc(-c2c(C(N)=O)c(N)nc3c2C(=O)CCC3)cc1 ?
Reply: 95

Ask: Input COc1cc(-c2c(C#N)c(N)nc3c2C(=O)CCC3)cc(OC)c1OC
Reply: 95

Ask: Now the compound N#Cc1c(N)nc2c(c1-c1cccc(N3C(=O)C=CC3=O)c1)C(=O)CCC2
Reply: 95

Ask: Also check N#Cc1c(N)nc2c(c1-c1ccc(F)cc1)C(=O)CCC2
Reply: 95

Ask: CC(=O)Nc1nc2c(c(-c3cccc(N4C(=O)C=CC4=O)c3)c1C#N)C(=O)CCC2 ?
Reply: 95

Ask: Check N#Cc1c(N)nc2c(c1-c1cccc(NC(=O)Nc3cccc(-c4c(C#N)c(N)nc5c4C(=O)CCC5)c3)c1)C(=O)CCC2 too.
Reply: 95

Ask: Continue with COc1ccc(-c2c(C#N)c(N)nc3c2C(=O)CCC3)cc1
Reply: 95

Ask: Would you kindly repeat that for N#Cc1c(N)nc2c(c1-c1ccc(Cl)cc1)C(=O)CCC2 ?
Reply: 95

Values compiled from ChEMBL document CHEMBL1137451.
